- System: recombinant homotrimeric HA A/California/4/09 H1N1 (Influenza A virus A/California/04/2009(H1N1))
- Protocol notes: protein microarray, purified IgG, trimeric HA
- Condition summary: remark: other sources report otherwise
Readout name: Trimeric HA Binding: RLU
// unit must come after the numeric part

// Trimeric HA Binding: RLU lookup, key: TCN-550 (5096_F06) (antibody, V domains shown) VH: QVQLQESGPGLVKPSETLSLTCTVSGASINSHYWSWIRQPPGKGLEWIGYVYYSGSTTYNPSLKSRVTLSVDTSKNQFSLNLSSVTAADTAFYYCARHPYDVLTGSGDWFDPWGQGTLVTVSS VL: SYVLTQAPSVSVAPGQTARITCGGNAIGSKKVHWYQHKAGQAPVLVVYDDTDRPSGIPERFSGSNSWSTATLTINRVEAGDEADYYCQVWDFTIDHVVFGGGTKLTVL 238 RLU
